assay.system: DRB1*1501
test.name: binding to purified HLA
# pIC50 per entry
// pIC50: -log10(molar conc.)

Worked examples, 3 binders total:
| binder | pIC50 |
| --- | --- |
| AAAYFVAANTLHAAA [Y4.N9.H12] | 7.28 |
| AAAFFVAANTLKADA [F4.N9.D14] | 6.99 |
| AAAHFVAAWTLHAAA [H4.H12] | 7.92 |

Lab book: pIC50 of AAAWFVAANTLHAAA [W4.N9.H12] noted as 7.00

Recorded pIC50 (binder AAAFFVAANTLHAAA [F4.N9.H12] ): 7.15

Briefly, pIC50 measured for AAAYFVAAFTLHAAA [Y4.F9.H12] : 7.80

For reference, reported pIC50 for AAAYFVAAWTLHAAA [Y4.H12] stands at 7.80

pIC50 for AAAKFVAAWTLKAAA [SEQ ID NO: 4] is 8.01
